# Measured Target: full-length human α1D-adrenoceptor (Homo sapiens, UniProt P25100)
# Sequence (P25100 1-572): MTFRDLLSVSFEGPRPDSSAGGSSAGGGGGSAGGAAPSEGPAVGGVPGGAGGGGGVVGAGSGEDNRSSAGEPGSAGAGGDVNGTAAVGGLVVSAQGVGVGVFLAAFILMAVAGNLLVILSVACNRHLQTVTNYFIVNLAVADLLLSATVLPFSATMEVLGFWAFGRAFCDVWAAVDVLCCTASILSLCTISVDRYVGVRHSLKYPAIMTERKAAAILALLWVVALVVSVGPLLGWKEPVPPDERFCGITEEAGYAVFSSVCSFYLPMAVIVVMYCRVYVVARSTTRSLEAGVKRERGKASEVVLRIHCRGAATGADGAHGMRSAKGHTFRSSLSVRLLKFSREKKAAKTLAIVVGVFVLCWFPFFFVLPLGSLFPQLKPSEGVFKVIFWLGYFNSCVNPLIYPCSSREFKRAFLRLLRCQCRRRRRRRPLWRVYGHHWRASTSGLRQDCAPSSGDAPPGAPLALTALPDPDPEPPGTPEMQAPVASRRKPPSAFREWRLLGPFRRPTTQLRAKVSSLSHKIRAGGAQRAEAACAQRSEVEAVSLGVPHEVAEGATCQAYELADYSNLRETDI
# Measurement Notes: [3H]prazosin whole-cell competition binding, CHO-α1D cells
# Assay Context: affinity, subtype not given; by Table 1 reached at α1D site 1
pKd: −log10 of the molar value.
Property: pKd

Please indicate recorded pKd of COc1cc2nc(N3CCN(C(=O)c4ccco4)[C@H]4CCCC[C@H]43)nc(N)c2cc1OC (racemic) measured with full-length human α1D-adrenoceptor (Homo sapiens, UniProt P25100).
> 9.60

Ref: paper PMC7327383
